// provenance: ChEMBL document CHEMBL3243942

- experiment: Myocardial depressant activity in guinea pig atrial muscle assessed as maximal non-depressant dose by measuring contractility
- Format: ADME, tissue-based, Cavia porcellus, Muscle tissue
propertyLabel: Activity (µg/mL)

Worked cases, Activity given:
[[record]]
molecule = "Cl.NCC(O)COc1ccc(O)c2c1CCCC2 (centres undefined)"
propertylabel = "Activity"
quantityunit = "µg/mL"
valuereported = 31

[[record]]
molecule = "CC(C)(C)NCC(O)COc1ccc2c(c1)C[C@@H](O)[C@H](O)C2 (relative stereo)"
propertylabel = "Activity"
quantityunit = "µg/mL"
valuereported = 100

[[record]]
molecule = "CC(C)(C)NCC(O)COc1ccc(O)c2c1C[C@@H]1OCO[C@@H]1C2 (some centres undefined)"
propertylabel = "Activity"
quantityunit = "µg/mL"
valuereported = 100

[[record]]
molecule = "CC(C)NCC(O)COc1cc(O)c(O)c2c1CCCC2 (centres undefined)"
propertylabel = "Activity"
quantityunit = "µg/mL"
valuereported = 100

[[record]]
molecule = "CC(C)(C)NCC(O)COc1cccc2c1CCC(O)C2 (centres undefined)"
propertylabel = "Activity"
quantityunit = "µg/mL"
valuereported = 10

[[record]]
molecule = "CC(C)(C)[N+](C)(C)CC(O)COc1cccc2c1C[C@H](O)[C@H](O)C2.[I-] (some centres undefined)"
propertylabel = "Activity"
quantityunit = "µg/mL"
valuereported = 1000


[a] CO[C@H]1Cc2cccc(OCC(O)CNC(C)(C)C)c2C[C@H]1OC.Cl (relative stereo)
[b] CC(C)(C)NCC(O)COc1cccc2c1CC[C@@H](O)[C@@H]2O (relative stereo)
Exam item: Pick one: a or b . Which has the bigger Activity number? I would appreciate it if you answered with the label of your choice.
Marked response: b

* * *

- experiment: Myocardial depressant activity in guinea pig atrial muscle assessed as maximal non-depressant dose by measuring contractility
- Format: ADME, tissue-based, Cavia porcellus, Muscle tissue
propertyLabel: Activity (µg/mL)

Worked cases, Activity given:
[[record]]
compound = "CC(O)(CNC(C)(C)C)COc1cccc2c1C[C@H](O)[C@H](O)C2 (some centres not stated)"
propertylabel = "Activity"
quantityunit = "µg/mL"
valuereported = 31

[[record]]
compound = "CCOc1ccccc1OCCNCC(O)COc1cccc2c1C[C@H](O)[C@H](O)C2 (some centres not stated)"
propertylabel = "Activity"
quantityunit = "µg/mL"
valuereported = 31


[a] CC(C)NCC(O)COc1cccc2c1CC1OC1C2 (configuration not stated)
[b] CC(C)(C)NCC(O)COc1cccc2c1CCCC2=O (configuration not stated)
Exam item: Pick one: a or b . Which has the bigger Activity number? I would appreciate it if you answered with the label of your choice.
Marked response: a

* * *

- experiment: Myocardial depressant activity in guinea pig atrial muscle assessed as maximal non-depressant dose by measuring contractility
- Assay type: ADME, tissue-based, Cavia porcellus, Muscle tissue
propertyLabel: Activity (µg/mL)

Worked cases, Activity given:
[[record]]
compound = "CC(C)(C)CC(C)(C)NCC(O)COc1cccc2c1C[C@H](O)[C@H](O)C2 (some centres undefined)"
propertylabel = "Activity"
valuereported = 1

[[record]]
compound = "CC(C)(C)NCC(O)COc1cccc2c1C[C@@H]1OCO[C@@H]1C2 (relative stereo)"
propertylabel = "Activity"
valuereported = 3.1


[a] CC(C)N(Cc1ccccc1)CC(O)COc1cccc2c1C[C@H](O)[C@H](O)C2 (some centres undefined)
[b] C=CCc1ccc(OCCNCC(O)COc2cccc3c2C[C@H](O)[C@H](O)C3)c(OC)c1 (some centres undefined)
Exam item: Pick one: a or b . Which has the bigger Activity number? I would appreciate it if you answered with the label of your choice.
Marked response: a

* * *

- experiment: Inhibition of beta-adrenergic receptor in isoproterenol-stimulated guinea pig atrial muscle
- Format: tissue-based, Cavia porcellus, Cardiac atrium
propertyLabel: IC50 (µg/mL)

[[record]]
molecule = "CO[C@@H]1c2c(cccc2OCC(O)CNC(C)C)CC[C@@H]1O.O=C(O)C(=O)O (relative stereo)"
propertylabel = "IC50"
valuereported = 0.8


[a] Cl.NCC(O)COc1ccc(O)c2c1CCCC2 (centres undefined)
[b] CC(C)(C)NCC(O)COc1cccc2c1CC(O)CC2 (centres undefined)
Exam item: Pick one: a or b . Which has the bigger IC50 number? I would appreciate it if you answered with the label of your choice.
Marked response: a
(a: 0.15 µg/mL, b: 0.0025 µg/mL)

[A] CC(C)(C)NCC(O)COc1ccc(O)c2c1C[C@@H](O)[C@@H](O)C2.Cl (relative stereo)
[B] OC(CNCc1ccccc1)COc1cccc2c1C[C@H](O)[C@H](O)C2 (some centres undefined)
Exam item: Field: lower recorded IC50 (choose A or B ) I would appreciate it if you answered with the label of your choice.
Marked response: A
(A: 0.086 µg/mL, B: 1 µg/mL)

[A] CC(O)(CNC(C)(C)C)COc1cccc2c1C[C@H](O)[C@H](O)C2 (some centres undefined)
[B] CC(C)(C)NCC(O)COc1cccc2c1C[C@H](O)[C@@H](O)C2 (relative stereo)
[C] CC(C)NCC(O)COc1cccc2c1C[C@H](O)[C@@H](O)C2 (relative stereo)
[D] CC(C)(C)NCC(O)COc1cccc2c1CCC(O)C2 (centres undefined)
[E] CC(C)(C)NCC(O)COc1cccc2c1C[C@@H](O)[C@@H](O)C2 (relative stereo)
Exam item: Put these in order: smallest IC50 first, largest last. Reply: labels, ordered per the request.
Marked response: D, B, E, C, A

[P] CC(C)(C)NCC(O)COc1ccc(O)c2c1CCCC2 (centres undefined)
[Q] COc1ccc(CCNCC(O)COc2cc(O)c(O)c3c2CCCC3)cc1OC.Cl (centres undefined)
[R] CC(C)NCC(O)COc1cccc2c1CCC(O)C2.O=C(O)C(=O)O (centres undefined)
Exam item: Put these in order: smallest IC50 first, largest last. Reply: labels, ordered per the request.
Marked response: R, P, Q
(R: 0.002 µg/mL, P: 0.01 µg/mL, Q: 5.9 µg/mL)

* * *

- experiment: Myocardial depressant activity in guinea pig atrial muscle assessed as maximal non-depressant dose by measuring contractility
- Type: ADME, tissue-based, Cavia porcellus, Muscle tissue
propertyLabel: Activity

Worked cases, Activity given:
[[record]]
compound = "CC(C)(C)NCC(O)COc1cccc2c1C[C@H](O)[C@@H](O)C2 (relative stereo)"
valuereported = "> 1000 µg/mL"

[[record]]
compound = "Cl.NCC(O)COc1cccc2c1C[C@H](O)[C@H](O)C2 (stereo partly drawn)"
valuereported = "> 1000 µg/mL"


Now consider the entry below.
Exam item: Which Activity is reported for this compound? CCN(CC(O)COc1cccc2c1C[C@H](O)[C@H](O)C2)C(C)(C)C (stereo partly drawn)
Marked response: > 1000 µg/mL
